The origin of these recorded values is patent US12427210B2.

test: in vivo; details: mouse, plasma, iv, 4 nmol/kg
MEASURE NAME: AUC(0-inf) (nM·h)
Expressed in nM·h, but write only the number.

Determine its reported AUC(0-inf): CCCCCC(=O)N[C@H]1CSCc2cc(CSCCNC(=O)CN3CCN(CC(=O)O)CCN(CC(=O)O)CCN(CC(=O)O)CC3)cc(c2)CSC[C@@H](C(=O)O)NC(=O)[C@H](Cc2ccccc2)NC(=O)[C@H](CCC(N)=O)NC(=O)[C@H]([C@@H](C)O)NC(=O)[C@@H]2CCCN2C(=O)[C@@H]2CCCN2C1=O 8.3

###

assay: in vivo; conditions: mouse, plasma, iv, 4 nmol/kg
MEASURE NAME: half-life (min)
Please respond with the number in min and leave the unit unwritten.

Specify half-life for CCCCCC(=O)N[C@H]1CSCc2cc(CSCCNC(=O)CN3CCN(CC(=O)O)CCN(CC(=O)O)CCN(CC(=O)O)CC3)cc(c2)CSC[C@@H](C(=O)O)NC(=O)[C@H](Cc2ccccc2)NC(=O)[C@H](CCC(N)=O)NC(=O)[C@H]([C@@H](C)O)NC(=O)[C@@H]2CCCN2C(=O)[C@@H]2CCCN2C1=O and stop. 23

###

target: UniProt:P41595; details: read-out: Ki Ref; reference compound
Sequence (P41595 whole entry): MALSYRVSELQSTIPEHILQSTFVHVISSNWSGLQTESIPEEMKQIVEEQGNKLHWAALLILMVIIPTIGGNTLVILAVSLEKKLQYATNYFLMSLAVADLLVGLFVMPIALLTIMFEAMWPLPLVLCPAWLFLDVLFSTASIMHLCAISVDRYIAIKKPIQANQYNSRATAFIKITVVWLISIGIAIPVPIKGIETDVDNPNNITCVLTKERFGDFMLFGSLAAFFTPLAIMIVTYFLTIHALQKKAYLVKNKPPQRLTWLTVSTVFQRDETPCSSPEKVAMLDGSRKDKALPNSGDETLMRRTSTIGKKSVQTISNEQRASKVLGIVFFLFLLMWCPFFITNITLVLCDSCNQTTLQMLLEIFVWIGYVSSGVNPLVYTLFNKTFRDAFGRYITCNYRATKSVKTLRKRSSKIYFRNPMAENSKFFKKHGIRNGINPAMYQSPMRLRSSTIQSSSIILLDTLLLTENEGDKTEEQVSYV
MEASURE NAME: pKi
Conceptually, pKi converts a concentration in mol/L into minus its log10.

Find the measured pKi of COc1cc(CC(C)N)c(OC)cc1I (racemic) [(±)DOI] and report it. 8.38

###

test: in vivo; conditions: mouse, in vivo, iv, 40 nmol/kg
MEASURE NAME: clearance (mL/min/kg)
Respond numerically; units are mL/min/kg and should not be typed.

Given CCCCCC(=O)N[C@H]1CSCc2cc(CSCCNC(=O)CN3CCN(CC(=O)O)CCN(CC(=O)O)CCN(CC(=O)O)CC3)cc(c2)CSC[C@@H](C(=O)O)NC(=O)[C@H](Cc2ccccc2)NC(=O)[C@H](CCC(N)=O)NC(=O)[C@H]([C@@H](C)O)NC(=O)[C@@H]2CCCN2C(=O)[C@@H]2CCCN2C1=O , respond with its clearance. 11.8

###

experiment: in vivo; details: mouse, plasma, iv, 400 nmol/kg
MEASURE NAME: C0
Could you give the number and then its unit, please?

Please look at this compound and report its C0: CCCCCC(=O)N[C@H]1CSCc2cc(CSCCNC(=O)CN3CCN(CC(=O)O)CCN(CC(=O)O)CCN(CC(=O)O)CC3)cc(c2)CSC[C@@H](C(=O)O)NC(=O)[C@H](Cc2ccccc2)NC(=O)[C@H](CCC(N)=O)NC(=O)[C@H]([C@@H](C)O)NC(=O)[C@@H]2CCCN2C(=O)[C@@H]2CCCN2C1=O 4.97 µM

###

target: NMDA; conditions: read-out: Ki Ref; reference compound
MEASURE NAME: Ki

Let me know recorded Ki for O=C(O)[C@@H]1C[C@H](CP(=O)(O)O)CCN1 [CGS 19755, reference compound] , thanks. 140 nM

###

assay: in vivo; settings: mouse, plasma, iv, 40 nmol/kg, Vss, mouse plasma, intravenous 40 nmol/kg
MEASURE NAME: Vd (L/kg)
Response body: numeric value in L/kg, unit text excluded.

Identify measured Vd corresponding to CCCCCC(=O)N[C@H]1CSCc2cc(CSCCNC(=O)CN3CCN(CC(=O)O)CCN(CC(=O)O)CCN(CC(=O)O)CC3)cc(c2)CSC[C@@H](C(=O)O)NC(=O)[C@H](Cc2ccccc2)NC(=O)[C@H](CCC(N)=O)NC(=O)[C@H]([C@@H](C)O)NC(=O)[C@@H]2CCCN2C(=O)[C@@H]2CCCN2C1=O 0.32

###

assay: in vitro; conditions: mouse, plasma
MEASURE NAME: remaining at 24 h, 9.8 µM
Value and unit, in that order.

# return recorded remaining at 24 h, 9.8 µM for entry CCCCCC(=O)N[C@H]1CSCc2cc(CSCCNC(=O)CN3CCN4CCN5CCN(CC3)CC(=O)[O][Lu]([O]C(=O)C4)[O]C(=O)C5)cc(c2)CSC[C@@H](C(=O)O)NC(=O)[C@H](Cc2ccccc2)NC(=O)[C@H](CCC(N)=O)NC(=O)[C@H]([C@@H](C)O)NC(=O)[C@@H]2CCCN2C(=O)[C@@H]2CCCN2C1=O 100%

###

experiment: in vivo; details: mouse, plasma, iv, 40 nmol/kg
MEASURE NAME: AUC(0-inf) (µM·h)
Give the number; µM·h is assumed, so skip it.

Indicate its recorded AUC(0-inf); the compound in question is CCCCCC(=O)N[C@H]1CSCc2cc(CSCCNC(=O)CN3CCN(CC(=O)O)CCN(CC(=O)O)CCN(CC(=O)O)CC3)cc(c2)CSC[C@@H](C(=O)O)NC(=O)[C@H](Cc2ccccc2)NC(=O)[C@H](CCC(N)=O)NC(=O)[C@H]([C@@H](C)O)NC(=O)[C@@H]2CCCN2C(=O)[C@@H]2CCCN2C1=O 0.056

###

// each record: one item and its IC50 for FAP-expressing human WI-38 fibroblasts (Homo sapiens, UniProt Q12884)

Previously resolved entries follow.
Enter recorded IC50 with FAP-expressing human WI-38 fibroblasts (Homo sapiens, UniProt Q12884) for CCCCCC(=O)N[C@H]1CSCc2cc(CSCCNC(=O)CN3CCN4CCN(CC(=O)O)CCN(CC3)CC(=O)[O][Zn][O]C(=O)C4)cc(c2)CSC[C@@H](C(=O)O)NC(=O)[C@H](Cc2ccccc2)NC(=O)[C@H](CCC(N)=O)NC(=O)[C@H]([C@@H](C)O)NC(=O)[C@@H]2CCCN2C(=O)[C@@H]2CCCN2C1=O [Compound 3BP-4343] here. < 0.01 µM

Enter recorded IC50 with FAP-expressing human WI-38 fibroblasts (Homo sapiens, UniProt Q12884) for CCCCCC(=O)N[C@H]1CSCc2cc(CSCCNC(=O)CN3CCN4CCN5CCN(CC3)CC(=O)[O][Eu]([O]C(=O)C4)[O]C(=O)C5)cc(c2)CSC[C@@H](C(=O)O)NC(=O)[C@H](Cc2ccccc2)NC(=O)[C@H](CCC(N)=O)NC(=O)[C@H]([C@@H](C)O)NC(=O)[C@@H]2CCCN2C(=O)[C@@H]2CCCN2C1=O [Compound 3BP-3662] here. < 0.01 µM

# input for lookup
Provide IC50, tested on FAP-expressing human WI-38 fibroblasts (Homo sapiens, UniProt Q12884), for CCCCCC(=O)N[C@H]1CSCc2cc(CSCCNC(=O)CN3CCN4CCN5CCN(CC3)CC(=O)[O][Ga]([O]C(=O)C4)[O]C(=O)C5)cc(c2)CSC[C@@H](C(=O)O)NC(=O)[C@H](Cc2ccccc2)NC(=O)[C@H](CCC(N)=O)NC(=O)[C@H]([C@@H](C)O)NC(=O)[C@@H]2CCCN2C(=O)[C@@H]2CCCN2C1=O [Compound 3BP-3949] . < 0.01 µM
